// provenance: PubChem BioAssay (NCI)

Test system: SNB-19 CNS
Assay: NCI-60 one-dose screen, 48 h (100 = growth as untreated, 0 = no growth, -100 = all killed)
Settings: 10 µM unless noted
About 83,000 compounds went through this panel and 20% of them were active in at least one assay; those are over-represented in the sample as a whole. Activity calls are given as the source filed them. Rule for the calls: active = growth percent below 10; inactive = the rest.
Measure: growth

1. COc1cccc(-c2ccc(/C=N/NC(=O)c3[nH]c4ccc(Br)cc4c3-c3ccccc3)s2)c1 :: 11.7% (inactive)
2. COc1ccc(-c2nc3ccc(-c4nnc(SCc5ccccc5)o4)cc3[nH]2)cc1OC :: 28.1% (inactive)
3. O=C(N/N=C/c1occc1Br)c1[nH]c2ccc(Br)cc2c1-c1ccccc1 :: -97.1% (active)
4. Cc1cc(C(NC(=O)C2CC3(CC(Nc4cccc5c4C(=O)N(C4CCC(=O)NC4=O)C5=O)C3)C2)c2ccc3c(c2)OC(F)(F)O3)c(O)c2ncccc12 (stereo not given) :: 7.79% (active)
5. NS(=O)(=O)c1ccc(N2N=C(c3ccc(NC(=O)Nc4ccccc4)cc3)CC2c2ccc(Br)cc2)cc1 (stereo not given) :: -98.2% (active)
6. COc1ccc2nc(NC(=O)c3ccc(N(C)C)cc3)sc2c1 :: 84.4% (inactive)
7. COc1ccc(OC)c(Cn2cc(C#N)c(N)c2C(=O)c2ccc(Br)cc2)c1 :: 55.3% (inactive)
8. NS(=O)(=O)c1cccc(Nc2nc(SCC(=O)c3ccc(F)cc3)nc3ccccc23)c1 :: 11.9% (inactive)
9. CCCCCCCCc1ccc(C(=O)Nc2cccc(O)c2)cc1 :: 83% (inactive)

Please fill in: growth reported for COc1ccc(NC(=O)CSc2nnc(-c3ccc(-c4nc5ccccc5[nH]4)cc3)o2)cc1 = -5.58% (active)
